TARGET_OR_SYSTEM: HLA-B*46:01
PROTOCOL: IEDB peptide-MHC binding, purified MHC/direct/fluorescence; filed as Kd, often an IC50 or EC50 that approximates it; bounds were set here for any values at or beyond the usual limits of such assays
ASSAY_CONTEXT: source organism: Hepatovirus A
PROPERTY_MEASURED: Kd

PRIMARY_SEQUENCE: YMYAVSGAL
MEAS_VALUE: 1770 nM

* * *

TARGET_OR_SYSTEM: HLA-C*14:02
PROTOCOL: IEDB peptide-MHC binding, purified MHC/direct/fluorescence; filed as Kd, often an IC50 or EC50 that approximates it; bounds were set here for any values at or beyond the usual limits of such assays
ASSAY_CONTEXT: source organism: Listeria monocytogenes EGD-e
pKd: −log10 of the molar value.

PRIMARY_SEQUENCE: RYPRSVLTF
pKd: ≥ 9.00
